Values compiled from ChEMBL document CHEMBL1125894.

Please go through the items and note down their MIC.
system: Enterobacter cloacae; test: In vitro antibacterial activity against Enterobacter cloacae P99; assay type: functional
Numbers only, in µg/mL.

1) CO/N=C(\C(=O)N[C@@H]1C(=O)N2C(C(=O)O)=C(COC(C)=O)CS[C@H]12)c1csc(N)n1 [CEFOTAXIME]: 64

Would you mind giving MIC for every compound in the list below?
1. C[N+]1(CC2=C(C(=O)[O-])N3C(=O)[C@@H](NC=O)[C@H]3SC2)CCN(c2c(F)cc3c(=O)c(C(=O)O)cn(CCF)c3c2F)CC1
2. CN1CCN(c2c(F)cc3c(=O)c(C(=O)O)cn(CCF)c3c2F)CC1 [FLEROXACIN]
3. CO/N=C(\C(=O)N[C@@H]1C(=O)N2C(C(=O)[O-])=C(C[N+]3(C)CCN(c4c(F)cc5c(=O)c(C(=O)O)cn(CCF)c5c4F)CC3)CS[C@H]12)c1csc(N)n1
4. CCn1cc(C(=O)O)c(=O)c2cc(F)c(N3CC[N+](C)(CC4=C(C(=O)[O-])N5C(=O)[C@@H](NC(=O)/C(=N\OC)c6csc(N)n6)[C@H]5SC4)CC3)cc21
5. C[N+]1(CC2=C(C(=O)[O-])N3C(=O)[C@@H](NC(=O)COc4ccccc4)[C@H]3SC2)CCN(c2c(F)cc3c(=O)c(C(=O)O)cn(CCF)c3c2F)CC1
6. CO/N=C(\C(=O)N[C@@H]1C(=O)N2C(C(=O)O)=C(COC(=O)c3cn(CCF)c4c(F)c(N5CCN(C)CC5)c(F)cc4c3=O)CS[C@H]12)c1csc(N)n1
7. CC(C)(O/N=C(\C(=O)N[C@@H]1C(=O)N2C(C(=O)[O-])=C(C[N+]3(C)CCN(c4c(F)cc5c(=O)c(C(=O)O)cn(CCF)c5c4F)CC3)CS[C@H]12)c1csc(N)n1)C(=O)O

1. 0.5
2. 0.031
3. 0.5
4. 1
5. 0.5
6. 0.125
7. 1
